Assign Hemolysis (%) at 125 µM to each entry below.
- Tested on: erythrocyte suspensions of human blood
- ASSAY DETAILS: Hemolytic activity, hemoglobin release
- Format: cell-based
- CONDITION: peptide 125 μM (table prints 125 µM); human blood erythrocytes 5% v/v; absorbance 540 nm; percentage compared to melittin; three replicates
Peptide text beside a SMILES is read from it.
Respond with the bare value in %.

### Prompt What does the record list as Hemolysis (%) at 125 µM for CC(C)C[C@@H]1NC(=O)[C@H](CCCCN)NC(=O)[C@H](CCCCN)NC(=O)[C@H](CCCCN)NC(=O)[C@H](CCC(N)=O)NC(=O)[C@H](CCCCN)NC(=O)[C@H](CC(C)C)NC(=O)[C@H](CC(C)C)NC(=O)[C@H](Cc2c[nH]c3ccccc23)NC(=O)[C@H](CCCCN)NC1=O [BPC102W, c(KKKLKWLLKQ)] (cyclo(KKKLKWLLKQ)) ?
### Response 17

### Prompt What does the record list as Hemolysis (%) at 125 µM for CC(C)C[C@@H]1NC(=O)[C@H](CCCCN)NC(=O)[C@H](CCC(N)=O)NC(=O)[C@H](CC(C)C)NC(=O)[C@H](CCCCN)NC(=O)[C@H](CC(C)C)NC(=O)[C@H](Cc2c[nH]c3ccccc23)NC(=O)[C@H](CCCCN)NC(=O)[C@H](CCCCN)NC(=O)[C@H](CCCCN)NC1=O [BPC076W, c(KLKKKWLKLQ)] (cyclo(KKKWLKLQKL)) ?
### Response 21

----------
- Tested on: erythrocyte suspensions of human blood
- ASSAY DETAILS: Hemolytic activity, hemoglobin release
- Type: cell-based
- CONDITION: peptide 50 μM (table prints 50 µM); human blood erythrocytes 5% v/v; absorbance 540 nm; percentage compared to melittin; three replicates
Peptide text beside a SMILES is read from it.
READOUT LABEL: Hemolysis (%) at 50 µM
Respond with the bare value in %.

### Prompt What does the record list as Hemolysis (%) at 50 µM for CC(C)C[C@@H]1NC(=O)[C@H](CCCCN)NC(=O)[C@H](CC(C)C)NC(=O)[C@H](CCCCN)NC(=O)[C@H](CCC(N)=O)NC(=O)[C@H](CCCCN)NC(=O)[C@H](CCCCN)NC(=O)[C@H](CC(C)C)NC(=O)[C@H](Cc2c[nH]c3ccccc23)NC(=O)[C@H](CCCCN)NC1=O [BPC138W, c(KLKLKWLKKQ)] (cyclo(KKQKLKLKWL)) ?
### Response 7

### Prompt What does the record list as Hemolysis (%) at 50 µM for CC(C)C[C@@H]1NC(=O)[C@H](CCCCN)NC(=O)[C@H](CCC(N)=O)NC(=O)[C@H](CC(C)C)NC(=O)[C@H](CCCCN)NC(=O)[C@H](CC(C)C)NC(=O)[C@H](Cc2c[nH]c3ccccc23)NC(=O)[C@H](CCCCN)NC(=O)[C@H](CCCCN)NC(=O)[C@H](CCCCN)NC1=O [BPC076W, c(KLKKKWLKLQ)] (cyclo(KKKWLKLQKL)) ?
### Response 15

### Prompt What does the record list as Hemolysis (%) at 50 µM for CC(C)C[C@@H]1NC(=O)[C@H](CCCCN)NC(=O)[C@H](CCCCN)NC(=O)[C@H](Cc2c[nH]c3ccccc23)NC(=O)[C@H](CCCCN)NC(=O)[C@H](CC(C)C)NC(=O)[C@H](CC(C)C)NC(=O)[C@H](CC(C)C)NC(=O)[C@H](CCCCN)NC(=O)[C@H](CCC(N)=O)NC1=O [BPC184W, c(KLLLKWKKLQ)] (cyclo(KKLQKLLLKW)) ?
### Response 22
